system: Leishmania donovani; assay: Leishmania intramacrophage assay; assay type: functional, organism-based; parameters: scale not given: in the data most compounds retested in dose-response had high values; settings: 30.3 µM; […]
Screen size: about 69,000 compounds; about 1,000 (1.4%) showed an effect of 50% or more. The sample as a whole holds a higher share of strong results than the screen did.
// NB: equality with 10% counts as false; only Percent Effect strictly below is true

Request: # check: Percent Effect < 10% for `CN(C)CCN(C)c1ccc(-c2nc(COc3ccccc3)no2)cn1`
Result: false

Request: Just wondering, is Percent Effect of `Oc1c(F)cc(CNc2cccc(-c3nnc[nH]3)c2)cc1F` below 10%?
Result: false

Request: Item `O=C(c1cc(-c2cn[nH]c2)nc2cc(F)ccc12)N1CCS(=O)(=O)CC1` : Percent Effect beneath 10%, strictly?
Result: true

Request: In the record for `N#Cc1c(Cl)nsc1NCc1ccc(N2CCC(CO)CC2)cc1` , is Percent Effect less than 10%?
Result: false

Request: Dear reviewer, please state whether `CSCC[C@@H](CO)Nc1ccc(-c2nc(-c3ccccc3F)no2)cn1` has Percent Effect strictly beneath 10%.
Result: true

Request: In the record for `Cc1ccc(C)c(NCc2nc3n(n2)CCCCC3)c1` , is Percent Effect less than 10%?
Result: true

Request: Is Percent Effect of `COc1ccc(OC)c(Nc2nc3c(C)nn(C)c3c(=O)n2C)c1` strictly below 10%?
Result: false

---

tested on: Leishmania donovani; experiment: Leishmania intramacrophage assay; assay type: functional, organism-based; parameters: scale not given: in the data most compounds retested in dose-response had high values; conditions: 30.3 µM; […]
Among all 69,000 compounds or so, about 1,000 (1.4%) showed an effect of 50% or more. The full list was thinned out, with strong results kept by preference.
Please respond with reported Percent Effect for every item in the list.
Give just the numeric value; % need not be written.

Request: Need Percent Effect, item `c1ccc(CN2CCC(CNc3ncnc4c3CCNCC4)CC2)cc1`
Result: -23.91

Request: For `COCc1ncc(CN2CC[C@@](C)(O)[C@@H](Cc3ccccc3)C2)cn1` , what is its reported Percent Effect?
Result: 11.16

Request: Requested read-out: Percent Effect. Entry: c1ccc(CN2CCC(CCNc3ncnc4c3CCNCC4)C2)cc1 (stereo unspecified)
Result: -39.7

Request: GET /values?readout=Percent Effect&item= O=C(c1cccc2[nH]ccc12)N1CCC2(CCOC2)C1 (stereo unspecified)
Result: 24.57

Request: Return reported Percent Effect; argument: `COc1ccc(-c2nc(CC(=O)N(C)CCC#N)cs2)cc1OC`
Result: 0.3942

Request: Please give the measured Percent Effect for this molecule: COc1ccc2cc(CN(C)C(C)c3nc(C(C)(C)C)no3)ccc2c1 (stereo unspecified)
Result: 20.66

Request: Reported Percent Effect, molecule `CC(C)Cn1cc(NC(=O)NC(C)(C)c2nccs2)cn1` : ____
Result: -3.295

Request: Endpoint output: Percent Effect of `COc1ccc(Cl)cc1CNCCCn1ccnc1` . Value?
Result: 3.119

Request: Record request: Percent Effect value, item `COCc1noc(CCNc2ncnc3c2CCNCC3)n1`
Result: 2.148

Request: Dear colleague, I am looking for the recorded Percent Effect of the following molecule: `Cc1ccccc1-n1cc(CNc2ncnc3c2CCNCC3)cn1`
Result: 29.71

Request: Field request: Percent Effect | item: Cc1nnc2n1CCN(C(=O)C(OC1CCCC1)c1ccccc1)C2 (stereo unspecified)
Result: 5.78

---

system: Leishmania donovani; experiment: Leishmania intramacrophage assay; format: functional, organism-based; set-up: scale not given: in the data most compounds retested in dose-response had high values; conditions: 30 µM
Hit rate of the full screen: of about 69,000 compounds, about 1,000 (1.4%) showed an effect of 50% or more. Shown is part of a subset that was picked to be rich in strong results.
Response field label takes yes (1) when Percent Effect is strictly below 10% and no (0) in all other cases.

Request: Please let me know if CC(C)c1n[nH]c(C(=O)NC(C)c2ccncc2)c1Br (configuration not stated) shows Percent Effect below 10%.
Result: no (0)

Request: Here's an entry: `Cn1ccnc1CN1CCCN(C(=O)CC(C2CC2)C2CC2)CC1` . Is its Percent Effect below 10%?
Result: no (0)

Request: Strictly below 10%: is that where Percent Effect of `CN(C)c1ncccc1CNS(=O)(=O)c1ccc(F)c(F)c1` sits?
Result: no (0)

Request: Strictly below 10% in Percent Effect? `Cc1ccc(-c2cc(C(=O)NCCN3CCCS3(=O)=O)[nH]n2)cc1`
Result: yes (1)

Request: Quick check: Percent Effect of Cc1nc(C)n(CC2CCCN(CC(=O)Nc3ccncc3)C2)n1 (configuration not stated) under 10%?
Result: no (0)

Request: Dear reviewer, please state whether Cc1cc(CN2CCC(N(C)Cc3noc(C4CC4)n3)C2)on1 (configuration not stated) has Percent Effect strictly beneath 10%.
Result: no (0)

Request: Lab log: compare recorded Percent Effect with 10%; is it strictly lower for `CNC(=O)CCS(=O)(=O)Cc1cc(Cl)c2c(c1)OCCO2` ?
Result: yes (1)

---

Exercise: for every item that follows, state its recorded Percent Effect.
test system: Leishmania donovani; experiment: Leishmania intramacrophage assay; format: functional, organism-based; parameters: scale not given: in the data most compounds retested in dose-response had high values; details: 30.3 µM; […]
Among all 69,000 compounds or so, about 1,000 (1.4%) showed an effect of 50% or more. The sample as a whole holds a higher share of strong results than the screen did.
Write it as a number; the unit % goes unstated.

Request: Give the reported Percent Effect for CCCn1nnnc1CN1Cc2ccccc2CC1c1nnc(C)o1 (stereo not drawn) (system: Leishmania donovani).
Result: 14.94

Request: Which measured Percent Effect belongs to CCN(C)c1ncnc2c1CCN(CC1CCOC1)CC2.O=C(O)C(F)(F)F (stereo not drawn) , tested on Leishmania donovani?
Result: -1.105

Request: Lab note: need Percent Effect with Leishmania donovani for entry `Cc1cc(CN2C[C@@H]3CN(C(=O)c4cccn4C)CCO[C@@H]3C2)no1.O=C(O)C(F)(F)F` , please look it up.
Result: 11.08

Request: Any idea what Percent Effect came out for Cc1nc(CN2CCCC(CCc3ccc(F)c(F)c3)C2)c[nH]1 (stereo not drawn) on Leishmania donovani?
Result: 65.39

Request: // fetch Leishmania donovani Percent Effect for `CC(=O)N1CCC(NC(=O)Cc2nc3nc(C)cc(C)n3n2)CC1`
Result: 9.867

Request: I'm curious: which Percent Effect was measured for `CCNC(=O)[C@@H]1C[C@H](N)CN1Cc1ccc(Sc2ccc(C)cc2)o1` tested on Leishmania donovani?
Result: -2.33

Request: Query Percent Effect on Leishmania donovani for `Cn1cc(CN2C[C@@H]3CN(C(=O)c4cccn4C)CCO[C@@H]3C2)cn1`
Result: 58.31

Request: Give Percent Effect (Leishmania donovani) of the following compound: CN(C)CC1(O)CCCN(C(=O)Cc2ccc(Cl)c(Cl)c2)C1 (stereo not drawn)
Result: -2.799

Request: For the record CCN1CC(C(=O)N(C)Cc2cc3cc(F)ccc3[nH]2)CC1=O (stereo not drawn) , what value of Percent Effect is listed for Leishmania donovani?
Result: 16.63

Request: Test system Leishmania donovani; read-out Percent Effect; what value for CN(Cc1cc2cc(F)ccc2[nH]1)C(=O)C1CC(=O)N(C(C)(C)C)C1 (stereo not drawn) ?
Result: 55.15

Request: Fill in the recorded Percent Effect for this compound, with Leishmania donovani as test system: COc1cccc2c1OCC(C(=O)N1CCN(CCS(C)(=O)=O)CC1)C2 (stereo not drawn)
Result: 2.664

Request: Item: `Cc1ccc2[nH]c(CN(C)Cc3ccccc3C(=O)O)nc2c1` Test system: Leishmania donovani Read-out: Percent Effect Value: ?
Result: 25.21

Request: What Percent Effect appears in the records for this compound with Leishmania donovani? `NC(=O)CCSCc1cc(Br)cc2cccnc12`
Result: 18.7

Request: Record lookup: for Leishmania donovani, what Percent Effect belongs to Cc1ccc(C(CCNCCCN(C)C)C2CCOC(C)(C)C2)cc1.O=C(O)C(=O)O (stereo not drawn) ?
Result: 85.22

Request: Query Percent Effect on Leishmania donovani for `CCNC(=O)[C@@H]1C[C@H](N)CN1Cc1ccc(-c2cc[nH]n2)o1`
Result: 11.56

Request: Item `Cc1ccc2nc(CN(C)Cc3[nH]nc4c3CCC4)[nH]c2c1C` with Leishmania donovani - Percent Effect?
Result: 40.9

Request: Give the reported Percent Effect for CC(C)Nc1cccc(C(=O)NCC(O)c2cccc(F)c2)c1 (stereo not drawn) (system: Leishmania donovani).
Result: 8.412

Request: Which measured Percent Effect belongs to `NS(=O)(=O)c1cccnc1Nc1cccc(Cl)c1Cl` , tested on Leishmania donovani?
Result: 7.348
